Sourced from the supplement of paper PMC11502859

Listed substances paired with reported median enrichment
test system: HEK293T; assay: median enrichment of reporter reads in eGFP-reduced (low/intermediate) vs eGFP-high sorted cells (eGFP-extension fusion abundance) (ratio); higher = stronger loss of eGFP-fusion protein abundance (more destabilising extension);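 further: lentiviral eGFP-IRES-mCherry reporter pool sorted by FACS 96 h post-transduction, gated on mCherry-high cells, Illumina read counts normalized per million, median across four biological replicates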
Output spec: single numeric token, no unit.

In: median enrichment of RGPELARPRTPNTIFAIQPQAMGTAFLPRGPGRPQRLLQARTLVHYTPCLGAEILQQKDAIFFVSFFSIFFSKESIFQYVECV [NFYC] on HEK293T?
Out: 3.94

In: Missing value: median enrichment, HEK293T, entry SAPDSASALLTFYPVSLPSPLKAGAPRELPWSSLPGRV [PKMYT1] . Fill in?
Out: 8.2
